Experiment: Plasma concentration in Sprague-Dawley rat after 7 hrs at 100 mg/kg, po
Assay type: ADME, organism-based
Parameters: dose 100 mg/kg, route oral
Readout Type: concentration at 7 h (µM)
Dear colleague, please return just the value in µM, with no unit written.

Structure Smiles: CC#C[C@]1(O)CC[C@H]2[C@@H]3CCC4=CC(=O)CCC4=C3[C@@H](c3ccc(OCCO[C@H]4CC[C@@]5(C)[C@@H](C4)C[C@@H](O)[C@@H]4[C@@H]5C[C@H](O)[C@]5(C)[C@@H]([C@H](C)CCC(=O)O)CC[C@@H]45)c(C)c3)C[C@@]21C
concentration at 7 h / µM: 4.5
--
Structure Smiles: CC#C[C@]1(O)CC[C@H]2[C@@H]3CCC4=CC(=O)CCC4=C3[C@@H](c3ccc(OC)c(C)c3)C[C@@]21C
concentration at 7 h / µM: 4.8
--
Structure Smiles: CC#C[C@]1(O)CC[C@H]2[C@@H]3CCC4=CC(=O)CCC4=C3[C@@H](c3ccc(N(C)C)cc3)C[C@@]21C
concentration at 7 h / µM: 3.9

API: the following record is the query input.
Incoming: Which value of concentration at 7 h has been reported for "CC#C[C@]1(O)CC[C@H]2[C@@H]3CCC4=CC(=O)CCC4=C3[C@@H](c3ccc(N(C)CCO[C@H]4CC[C@@]5(C)[C@@H](C4)C[C@@H](O)[C@@H]4[C@@H]5C[C@H](O)[C@]5(C)[C@@H]([C@H](C)CCC(=O)O)CC[C@@H]45)cc3)C[C@@]21C" in the records?
Outgoing: 4.5

----------
Target: Glucocorticoid receptor (Homo sapiens, UniProt P04150)
Sequence (P04150 whole entry): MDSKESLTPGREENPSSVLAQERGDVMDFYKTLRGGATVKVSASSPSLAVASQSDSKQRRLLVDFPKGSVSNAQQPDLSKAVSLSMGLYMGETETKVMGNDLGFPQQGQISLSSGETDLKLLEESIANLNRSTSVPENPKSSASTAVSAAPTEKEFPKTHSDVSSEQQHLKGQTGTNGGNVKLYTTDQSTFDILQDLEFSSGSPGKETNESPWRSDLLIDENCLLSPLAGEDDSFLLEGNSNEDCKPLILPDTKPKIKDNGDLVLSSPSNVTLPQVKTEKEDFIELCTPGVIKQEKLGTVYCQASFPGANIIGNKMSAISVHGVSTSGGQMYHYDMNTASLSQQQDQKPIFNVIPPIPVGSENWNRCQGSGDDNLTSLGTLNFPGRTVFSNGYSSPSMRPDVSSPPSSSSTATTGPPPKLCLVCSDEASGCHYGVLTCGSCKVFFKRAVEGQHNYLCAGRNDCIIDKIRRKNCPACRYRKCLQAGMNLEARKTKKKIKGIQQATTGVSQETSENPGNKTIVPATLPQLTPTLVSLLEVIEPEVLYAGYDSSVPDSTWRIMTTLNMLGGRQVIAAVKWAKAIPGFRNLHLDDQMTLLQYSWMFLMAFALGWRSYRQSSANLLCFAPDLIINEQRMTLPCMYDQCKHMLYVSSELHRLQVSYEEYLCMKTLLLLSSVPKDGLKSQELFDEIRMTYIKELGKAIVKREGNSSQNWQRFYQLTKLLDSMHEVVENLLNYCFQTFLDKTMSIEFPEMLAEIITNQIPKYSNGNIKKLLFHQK
Assay: Binding affinity to human GR
pIC50: −log10 of the molar value.
Label scheme for pIC50: lower than 9 is false (0), 9 and above is true (1).

Structure Smiles: C=CCOc1ccc([C@H]2C[C@@]3(C)[C@@H](CC[C@@]3(O)C#CC)[C@@H]3CCC4=CC(=O)CCC4=C32)cc1Cl
Cat: true (1)

Incoming: Please check the record "CC#C[C@]1(O)CC[C@H]2[C@@H]3CCC4=CC(=O)CCC4=C3[C@@H](c3c(OC)cc(OC)cc3OC)C[C@@]21C" and state if its pIC50 is at or above 9.
Outgoing: false (0)

Incoming: For "CC#C[C@]1(O)CC[C@H]2[C@@H]3CCC4=CC(=O)CCC4=C3[C@@H](c3ccc(OCCO[C@H]4CC[C@@]5(C)[C@@H](C4)C[C@@H](O)[C@@H]4[C@@H]5C[C@H](O)[C@]5(C)[C@@H]([C@H](C)CCC(=O)O)CC[C@@H]45)c(C)c3)C[C@@]21C" then?
Outgoing: false (0)

Incoming: For "CC#C[C@]1(O)CC[C@H]2[C@@H]3CCC4=CC(=O)CCC4=C3[C@@H](c3ccc(OC)cc3C)C[C@@]21C" then?
Outgoing: false (0)

Incoming: For "CC#C[C@]1(O)CC[C@H]2[C@@H]3CCC4=CC(=O)CCC4=C3[C@@H](c3ccc(O)c(C)c3)C[C@@]21C" then?
Outgoing: false (0)

Incoming: For "CC#C[C@]1(O)CC[C@H]2[C@@H]3CCC4=CC(=O)CCC4=C3[C@@H](c3cc(C)c(OC)c(C)c3)C[C@@]21C" then?
Outgoing: true (1)

Incoming: For "CC#C[C@]1(O)CC[C@H]2[C@@H]3CCC4=CC(=O)CCC4=C3[C@@H](c3ccc(-c4ccc(OCCO[C@H]5CC[C@@]6(C)[C@@H](C5)C[C@@H](O)[C@@H]5[C@@H]6C[C@H](O)[C@]6(C)[C@@H]([C@H](C)CCC(=O)O)CC[C@@H]56)cc4)cc3)C[C@@]21C" then?
Outgoing: false (0)

----------
Reported IC50 values for a set of molecules
Biological target: Glucocorticoid receptor (Homo sapiens)
Test: Binding affinity to human GR
Dear colleague, please return just the value in nM, with no unit written.

As a guide, the following entries are already answered.
Structure Smiles: CC#C[C@]1(O)CC[C@H]2[C@@H]3CCC4=CC(=O)CCC4=C3[C@@H](c3c(F)cc(OC)cc3OC)C[C@@]21C
IC50 (nM): 6.1

Structure Smiles: CC#C[C@]1(O)CC[C@H]2[C@@H]3CCC4=CC(=O)CCC4=C3[C@@H](c3ccc(-c4ccc(OC)cc4)cc3)C[C@@]21C
IC50 (nM): 0.7

Structure Smiles: CC#C[C@]1(O)CC[C@H]2[C@@H]3CCC4=CC(=O)CCC4=C3[C@@H](c3ccc(SC)cc3)C[C@@]21C
IC50 (nM): 0.6

Structure Smiles: CC#C[C@]1(O)CC[C@H]2[C@@H]3CCC4=CC(=O)CCC4=C3[C@@H](c3ccc(OC)c(C)c3)C[C@@]21C
IC50 (nM): 0.1

Structure Smiles: CC#C[C@]1(O)CC[C@H]2[C@@H]3CCC4=CC(=O)CCC4=C3[C@@H](c3cc(OC)c(OC)c(OC)c3)C[C@@]21C
IC50 (nM): 60.7

Incoming: Which value of IC50 has been reported for "CC#C[C@]1(O)CC[C@H]2[C@@H]3CCC4=CC(=O)CCC4=C3[C@@H](c3cc(C)c(OCCO[C@H]4CC[C@@]5(C)[C@@H](C4)C[C@@H](O)[C@@H]4[C@@H]5C[C@H](O)[C@]5(C)[C@@H]([C@H](C)CCC(=O)O)CC[C@@H]45)c(C)c3)C[C@@]21C" in the records?
Outgoing: 4.9

Incoming: For "CC#C[C@]1(O)CC[C@H]2[C@@H]3CCC4=CC(=O)CCC4=C3[C@@H](c3cc(F)c(OC)cc3F)C[C@@]21C" then?
Outgoing: 3.2

Incoming: For "CC#C[C@]1(O)CC[C@H]2[C@@H]3CCC4=CC(=O)CCC4=C3[C@@H](c3ccc(OC)cc3)C[C@@]21C" then?
Outgoing: 0.9

----------
Test system: Rattus norvegicus
Assay: Inhibition of prednisilone-induced glycogen deposition in Sprague-Dawley rat at 100 mg/kg, po
Format: functional
Reported inhibition in vivo at 100 mg/kg values for a set of compounds
# output: numeric value plus its unit

Structure Smiles: CC#C[C@]1(O)CC[C@H]2[C@@H]3CCC4=CC(=O)CCC4=C3[C@@H](c3ccc(-c4ccc(OCCO[C@H]5CC[C@@]6(C)[C@@H](C5)C[C@@H](O)[C@@H]5[C@@H]6C[C@H](O)[C@]6(C)[C@@H]([C@H](C)CCC(=O)O)CC[C@@H]56)cc4)cc3)C[C@@]21C
Test Target: Rattus norvegicus
Readout Type: inhibition in vivo at 100 mg/kg
Measurement: 51%

API: the following record is the query input.
Incoming: Which value of inhibition in vivo at 100 mg/kg has been reported for "CC#C[C@]1(O)CC[C@H]2[C@@H]3CCC4=CC(=O)CCC4=C3[C@@H](c3ccc(N(C)CCO[C@H]4CC[C@@]5(C)[C@@H](C4)C[C@@H](O)[C@@H]4[C@@H]5C[C@H](O)[C@]5(C)[C@@H]([C@H](C)CCC(=O)O)CC[C@@H]45)cc3)C[C@@]21C" in the records?
Outgoing: 86%

----------
Reported IC50 values for a set of molecules
Biological target: Glucocorticoid receptor (Homo sapiens, UniProt P04150)
Assay: Activity at GR expressed in CHO cells assessed as decrease in dexamethasone-stimulated alkaline phosphatase production by GRAF assay
Type: cell-based
Dear colleague, please return just the value in nM, with no unit written.

Structure Smiles: CC#C[C@]1(O)CC[C@H]2[C@@H]3CCC4=CC(=O)CCC4=C3[C@@H](c3ccc(OC)cc3)C[C@@]21C
Test Target: Glucocorticoid receptor (Homo sapiens, UniProt P04150)
Readout Type: IC50
Measurement: 7.6
--
Structure Smiles: CC#C[C@]1(O)CC[C@H]2[C@@H]3CCC4=CC(=O)CCC4=C3[C@@H](c3ccc(N(C)CCO[C@H]4CC[C@@]5(C)[C@@H](C4)C[C@@H](O)[C@@H]4[C@@H]5C[C@H](O)[C@]5(C)[C@@H]([C@H](C)CCC(=O)O)CC[C@@H]45)cc3)C[C@@]21C
Test Target: Glucocorticoid receptor (Homo sapiens, UniProt P04150)
Readout Type: IC50
Measurement: 10
--
Structure Smiles: CC#C[C@]1(O)CC[C@H]2[C@@H]3CCC4=CC(=O)CCC4=C3[C@@H](c3ccc(SC)cc3)C[C@@]21C
Test Target: Glucocorticoid receptor (Homo sapiens, UniProt P04150)
Readout Type: IC50
Measurement: 1.8
--
Structure Smiles: CC#C[C@]1(O)CC[C@H]2[C@@H]3CCC4=CC(=O)CCC4=C3[C@@H](c3c(F)cc(OC)cc3OC)C[C@@]21C
Test Target: Glucocorticoid receptor (Homo sapiens, UniProt P04150)
Readout Type: IC50
Measurement: 43
--
Structure Smiles: CC#C[C@]1(O)CC[C@H]2[C@@H]3CCC4=CC(=O)CCC4=C3[C@@H](c3cc(C)c(OC)c(C)c3)C[C@@]21C
Test Target: Glucocorticoid receptor (Homo sapiens, UniProt P04150)
Readout Type: IC50
Measurement: 2.8

Incoming: Which value of IC50 has been reported for "CC#C[C@]1(O)CC[C@H]2[C@@H]3CCC4=CC(=O)CCC4=C3[C@@H](c3cc(F)c(OC)cc3F)C[C@@]21C" in the records?
Outgoing: 15

Incoming: For "CC#C[C@]1(O)CC[C@H]2[C@@H]3CCC4=CC(=O)CCC4=C3[C@@H](c3ccc(Oc4ccccc4)cc3)C[C@@]21C" then?
Outgoing: 18.8

Incoming: For "CC#C[C@]1(O)CC[C@H]2[C@@H]3CCC4=CC(=O)CCC4=C3[C@@H](c3ccc(-c4ccc(OC)cc4)cc3)C[C@@]21C" then?
Outgoing: 4.2

Incoming: For "C=CCOc1ccc([C@H]2C[C@@]3(C)[C@@H](CC[C@@]3(O)C#CC)[C@@H]3CCC4=CC(=O)CCC4=C32)cc1Cl" then?
Outgoing: 4.7

Incoming: For "CC#C[C@]1(O)CC[C@H]2[C@@H]3CCC4=CC(=O)CCC4=C3[C@@H](c3ccc(OC)c(C)c3)C[C@@]21C" then?
Outgoing: 1.1

Incoming: For "CC#C[C@]1(O)CC[C@H]2[C@@H]3CCC4=CC(=O)CCC4=C3[C@@H](c3c(F)cc(OC)cc3F)C[C@@]21C" then?
Outgoing: 10.1

Incoming: For "CC#C[C@]1(O)CC[C@H]2[C@@H]3CCC4=CC(=O)CCC4=C3[C@@H](c3cc(C)c(OCCO[C@H]4CC[C@@]5(C)[C@@H](C4)C[C@@H](O)[C@@H]4[C@@H]5C[C@H](O)[C@]5(C)[C@@H]([C@H](C)CCC(=O)O)CC[C@@H]45)c(C)c3)C[C@@]21C" then?
Outgoing: 200

Incoming: For "C=CCOc1c(C)cc([C@H]2C[C@@]3(C)[C@@H](CC[C@@]3(O)C#CC)[C@@H]3CCC4=CC(=O)CCC4=C32)cc1Cl" then?
Outgoing: 20.9
